- Tested on: MOLT-4
- measurementDescription: Cytotoxicity against human MOLT4 cells after 48 hrs by sulforhodamine B assay
- Type: functional
- protocolConditions: MOLT-4, 48 h
testReadout: log10 of GI50 (log10 of the value in nM)

[
  {
    "smilesEntry": "COc1cccc(/C=N/NC(=O)c2ccccc2Nc2ccnc(C(F)(F)F)c2)c1O",
    "testedOn": "MOLT-4",
    "experimentalResult": 1.00
  },
  {
    "smilesEntry": "O=C(N/N=C/c1ccccc1O)c1ccccc1Nc1ccnc(C(F)(F)F)c1",
    "testedOn": "MOLT-4",
    "experimentalResult": 2.50
  },
  {
    "smilesEntry": "CCOc1cccc(/C=N/NC(=O)c2ccccc2Nc2ccnc(C(F)(F)F)c2)c1O",
    "testedOn": "MOLT-4",
    "experimentalResult": 2.10
  },
  {
    "smilesEntry": "CCN(CC)c1ccc(/C=N/NC(=O)c2ccc(Nc3ccnc(C(F)(F)F)c3)cc2)c(O)c1",
    "testedOn": "MOLT-4",
    "experimentalResult": 2.21
  },
  {
    "smilesEntry": "COc1ccc(C(=O)N/N=C/c2ccc(O)cc2O)cc1Nc1ccnc(C(F)(F)F)c1",
    "testedOn": "MOLT-4",
    "experimentalResult": 2.60
  }
]
